# System Under Test: T1, HTRA3, P83110
# T1 sequence (P83110 354-453, limits assumed, looked up): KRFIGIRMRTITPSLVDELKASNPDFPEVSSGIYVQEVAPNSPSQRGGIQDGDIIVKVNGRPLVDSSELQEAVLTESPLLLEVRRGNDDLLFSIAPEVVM
# Method: holdup assay
# Parameters: key: below the threshold = too weak to quantify, mostly under pKd 3.1 to 4
# Assay Conditions: plain residues with an end cap or a label only (N-terminal biotin on a linker: ado-ado)
Property Measured: pKd

Past entries and their recorded results:
LKVPPEERLI [CRB2, Q5IJ48]	below the threshold
LGRSTPQSEV [DGKH, Q86XP1]	below the threshold
TPPAAKKSRI [BAZ1A, Q9NRL2]	below the threshold
YLEPVLSSEL [ATP2A2, P16615;P16615-3]	below the threshold
ETQVTAETVI [TMEM225B, P0DP42]	below the threshold
QSLNRMEYIV [JAG1, P78504]	3.87
DDPSTAETVL [ABCA7, Q8IZY2]	below the threshold
VYPNAKVELV [PDLIM4_iso2, P50479]	3.62

Exam item: Could you share which pKd value was measured for VDSTVKVWTC [TRAF7, Q6Q0C0] ?
Marked response: 5.13

Exam item: Could you share which pKd value was measured for GQEEQVTTRL [TRPC5, Q9UL62] ?
Marked response: below the threshold

Exam item: Could you share which pKd value was measured for SAKVRTVTSV [RASL11B, Q9BPW5] ?
Marked response: below the threshold

Exam item: Could you share which pKd value was measured for EVNETDDTKM [KCNJ1, P48048] ?
Marked response: below the threshold

Exam item: Could you share which pKd value was measured for TSSMRGMDAV [RSRC2, Q7L4I2] ?
Marked response: below the threshold

Exam item: Could you share which pKd value was measured for VKPQVSESKL [ACOT8, O14734] ?
Marked response: below the threshold

Exam item: Could you share which pKd value was measured for QGPVETESVV [SLC45A4, Q5BKX6] ?
Marked response: below the threshold

Exam item: Could you share which pKd value was measured for RRISSLESEV [GRIN2C, Q14957] ?
Marked response: below the threshold

Exam item: Could you share which pKd value was measured for NLSIEKETKL [ASNSD1, Q9NWL6] ?
Marked response: below the threshold

Exam item: Could you share which pKd value was measured for EALLQMESVA [CAVIN3, Q969G5] ?
Marked response: below the threshold

Exam item: Could you share which pKd value was measured for TASPAKETSF [SLC2A7, Q6PXP3] ?
Marked response: below the threshold

Exam item: Could you share which pKd value was measured for SGSLKLMTTV [DACT1, Q9NYF0] ?
Marked response: below the threshold

Exam item: Could you share which pKd value was measured for SAAKVLTSMC [GHRHR, Q02643] ?
Marked response: 4.24

Exam item: Could you share which pKd value was measured for RKPKPSSSCC [RAB9A, P51151] ?
Marked response: 4.6
